Source: ChEMBL document CHEMBL5634142

# Test system: Plasmodium falciparum
# method: Antiplasmodial activity against erythrocytic stage of chloroquine, pyrimethamine and sulfadoxine resistant Plasmodium falciparum K1 infected in human erythrocytes assessed as reduction in parasite growth incubated for 72 hrs by SYBR green I fluorescence based spectrophotometric analysis
# Type: functional, organism-based
# experimentalContext: K1, Erythrocyte
pEC50: −log10 of the molar value.

{"compoundSmiles": "Cc1ccc(-c2cc3nc(N[C@H]4CCNC4)[nH]c(=O)c3s2)cc1", "assayedTarget": "Plasmodium falciparum", "pEC50": "< 4.51"}
{"compoundSmiles": "CCn1c(NC(C)(C)C)nc2cc(-c3ccc(C)cc3)sc2c1=O", "assayedTarget": "Plasmodium falciparum", "pEC50": "< 4.90"}
{"compoundSmiles": "Cc1ccc(-c2cc3nc(NC(C)(C)C(F)(F)F)[nH]c(=O)c3s2)cc1", "assayedTarget": "Plasmodium falciparum", "pEC50": "< 5.00"}
{"compoundSmiles": "Cc1ccc(-c2cc3nc(N4CCOCC4)[nH]c(=O)c3s2)cc1", "assayedTarget": "Plasmodium falciparum", "pEC50": "< 5.00"}
